Reported GI50 values for the following compounds.
System: MDA-MB-231
Experiment: Cell viability, EZ-Cytox tetrazolium assay, MDA-MB-231
Assay type: cell-based, human
Conditions: Homo sapiens, MDA-MB-231; 72 hours
Method: MDA-MB-231 (metastatic breast cancer, ATCC HTB-26), Jurkat (human acute T lymphocytic leukemia, ATCC TIB-152), and K-562 (human chronic myelogenous leukemia, ATCC CCL-243) cells were cultured in RPMI-1640 (Sigma Co.). […] Cell viability was assessed by a tetrazolium-based assay using the EZ-Cytox Cell Viability Assay kit (DaeilLab, Korea). […] After incubation, the optical density (OD) was measured at a wavelength of 450 nm using a Victor multilabel reader (Perkin Elmer, Waltham, Mass., USA). […]
Structures can show the parent of a compound that is named as a salt.
quantity.kind: GI50

CN1CCN(CCO/N=C2/C(=C3/C(=O)Nc4ccc([N+](=O)[O-])cc43)Nc3ccc(F)cc32)CC1 [Compound 18, dihydrochloride]    69.7 nM
O=C1Nc2ccc([N+](=O)[O-])cc2/C1=C1/Nc2ccc(F)cc2/C1=N\OCCN1CCNCC1 [Compound 17, dihydrochloride]    88.8 nM
O=C1Nc2ccc([N+](=O)[O-])cc2/C1=C1/Nc2ccc(F)cc2/C1=N\OCCN1CCCCC1 [Compound 19, hydrochloride]    804 nM
